Field: EC50. Provide a value for each of the molecules that follow.
# Target system: GABAA α4β2γ2 (Homo sapiens, UniProt P18507+P47870+P48169)
# Sequence (P48169 36-554): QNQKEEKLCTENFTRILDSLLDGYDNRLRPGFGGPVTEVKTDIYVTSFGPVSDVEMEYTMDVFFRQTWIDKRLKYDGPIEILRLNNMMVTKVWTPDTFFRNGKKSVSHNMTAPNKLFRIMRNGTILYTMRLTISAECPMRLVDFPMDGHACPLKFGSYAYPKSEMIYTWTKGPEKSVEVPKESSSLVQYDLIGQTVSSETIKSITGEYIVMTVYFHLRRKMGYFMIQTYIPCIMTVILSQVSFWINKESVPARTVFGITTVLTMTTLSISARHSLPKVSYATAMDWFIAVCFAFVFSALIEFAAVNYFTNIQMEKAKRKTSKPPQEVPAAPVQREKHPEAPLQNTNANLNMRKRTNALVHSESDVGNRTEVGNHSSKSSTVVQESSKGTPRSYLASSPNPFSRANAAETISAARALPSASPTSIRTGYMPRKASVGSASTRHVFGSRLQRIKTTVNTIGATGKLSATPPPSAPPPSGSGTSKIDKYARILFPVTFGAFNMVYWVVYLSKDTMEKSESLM
# Sequence (P47870 25-512 limits assumed): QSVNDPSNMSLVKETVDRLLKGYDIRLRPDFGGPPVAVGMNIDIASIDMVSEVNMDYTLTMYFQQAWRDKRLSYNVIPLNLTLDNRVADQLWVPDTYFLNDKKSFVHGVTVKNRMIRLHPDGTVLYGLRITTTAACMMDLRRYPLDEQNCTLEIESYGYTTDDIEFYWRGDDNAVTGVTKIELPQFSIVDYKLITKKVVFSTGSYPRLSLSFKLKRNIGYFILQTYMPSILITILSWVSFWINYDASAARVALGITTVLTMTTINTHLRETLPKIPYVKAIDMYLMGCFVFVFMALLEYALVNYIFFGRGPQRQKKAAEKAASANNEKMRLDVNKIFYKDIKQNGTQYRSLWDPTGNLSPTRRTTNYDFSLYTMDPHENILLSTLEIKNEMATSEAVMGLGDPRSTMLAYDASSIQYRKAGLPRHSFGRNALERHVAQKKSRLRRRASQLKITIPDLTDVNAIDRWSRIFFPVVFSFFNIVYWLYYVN
# Sequence (P18507 40-475): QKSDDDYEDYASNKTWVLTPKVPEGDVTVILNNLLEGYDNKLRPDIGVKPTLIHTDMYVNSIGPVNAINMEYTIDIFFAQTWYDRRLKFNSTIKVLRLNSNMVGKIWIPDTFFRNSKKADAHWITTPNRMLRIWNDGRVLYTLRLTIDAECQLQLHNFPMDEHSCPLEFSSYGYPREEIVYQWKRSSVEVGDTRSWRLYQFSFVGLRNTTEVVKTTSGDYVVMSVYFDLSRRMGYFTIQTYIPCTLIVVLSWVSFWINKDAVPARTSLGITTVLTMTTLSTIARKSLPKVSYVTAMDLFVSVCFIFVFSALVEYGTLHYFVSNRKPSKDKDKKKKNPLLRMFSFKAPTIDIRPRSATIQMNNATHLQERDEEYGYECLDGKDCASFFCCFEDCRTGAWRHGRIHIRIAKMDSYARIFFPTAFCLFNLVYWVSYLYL
# Procedure text: FLIPR functional assay, HEK 293 cells (agonist/PAM/antagonist)
# Measurement context: top concentration 1 mM, read-out: EC50, functional agonist receptor assay
One number for each entry, in µM.

Molecule: C[C@@](N)(CCC(=O)O)C(=O)O [(R)-2MeGlu, (R)-2-methylglutamic acid]
EC50 [µM]: 1250

Now consider the entry below.
Memo: C[C@](N)(CCC(=O)O)C(=O)O [(S)-2MeGlu, (S)-2-methylglutamic acid] , reported EC50: 1020

====

# Target system: GABAA α3β3γ2 (Homo sapiens, UniProt P18507+P28472+P34903)
# Sequence (P34903 29-492): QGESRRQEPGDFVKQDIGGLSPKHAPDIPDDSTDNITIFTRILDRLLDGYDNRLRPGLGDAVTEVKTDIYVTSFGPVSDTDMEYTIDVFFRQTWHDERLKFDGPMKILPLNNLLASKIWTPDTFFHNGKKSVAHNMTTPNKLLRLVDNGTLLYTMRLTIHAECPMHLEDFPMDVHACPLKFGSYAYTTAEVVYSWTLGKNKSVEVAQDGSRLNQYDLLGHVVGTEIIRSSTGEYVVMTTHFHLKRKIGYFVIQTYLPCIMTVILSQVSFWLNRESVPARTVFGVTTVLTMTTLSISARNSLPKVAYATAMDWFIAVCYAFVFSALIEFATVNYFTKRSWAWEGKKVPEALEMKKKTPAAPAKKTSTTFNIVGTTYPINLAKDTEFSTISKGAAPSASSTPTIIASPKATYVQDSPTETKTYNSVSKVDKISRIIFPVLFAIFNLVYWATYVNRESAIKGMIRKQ
# Sequence (P28472 26-473): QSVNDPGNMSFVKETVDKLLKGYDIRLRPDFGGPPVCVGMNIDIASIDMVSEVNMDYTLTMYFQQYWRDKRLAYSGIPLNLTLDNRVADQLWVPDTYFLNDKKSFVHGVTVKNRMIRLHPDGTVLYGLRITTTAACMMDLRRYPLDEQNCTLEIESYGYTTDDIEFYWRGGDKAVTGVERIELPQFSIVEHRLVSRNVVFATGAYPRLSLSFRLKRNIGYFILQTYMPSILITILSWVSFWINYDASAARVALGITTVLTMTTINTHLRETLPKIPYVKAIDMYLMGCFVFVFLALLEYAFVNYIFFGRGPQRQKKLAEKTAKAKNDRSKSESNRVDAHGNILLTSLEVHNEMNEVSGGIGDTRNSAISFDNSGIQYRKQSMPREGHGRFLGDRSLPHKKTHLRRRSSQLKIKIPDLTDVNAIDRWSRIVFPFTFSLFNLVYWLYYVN
# Sequence (P18507 40-475): as the sequence (P18507 40-475) above
# Procedure text: FLIPR functional assay, HEK 293 cells (agonist/PAM/antagonist)
# Measurement context: top concentration 1 mM, read-out: IC50, functional antagonist receptor assay
# Method: Functional assays of all GABAA, NMDA (GluN2A-GluN2D) and AMPA (GluA2) receptor subunits were performed by SB Drug Discovery as a part of their CNS discovery panel using FLIPR technology. Briefly, receptor-expressing HEK 293 cell lines were incubated in a red membrane potential dye in HEPES:HBSS pH 7.4 buffer and the fluorescence (λex: 488, λex: 510-570) was monitored over time as the test compounds and/or reference compounds were added to the solution. […]
Observable: IC50 (µM)
One number for each entry, in µM.

Hey, GABAA α3β3γ2 (Homo sapiens, UniProt P18507+P28472+P34903) data for C[C@](N)(CCC(=O)O)C(=O)O [(S)-2MeGlu, (S)-2-methylglutamic acid] : IC50 came out at 978

====

# Target system: GABAA α3β3γ2 (Homo sapiens, UniProt P18507+P28472+P34903)
# Procedure text: FLIPR functional assay, HEK 293 cells (agonist/PAM/antagonist)
# Measurement context: top concentration 1 mM, read-out: EC50, functional agonist receptor assay
Field: EC50. Provide a value for each of the compounds that follow.
Number first, unit second.

Compound: C[C@](N)(CCC(=O)O)C(=O)O [(S)-2MeGlu, (S)-2-methylglutamic acid]
EC50: 725 µM

Memo: C[C@@](N)(CCC(=O)O)C(=O)O [(R)-2MeGlu, (R)-2-methylglutamic acid] , reported EC50: 959 µM

====

# Target system: UniProt:Q12879
# Sequence (Q12879 23-1464, other chains not shown): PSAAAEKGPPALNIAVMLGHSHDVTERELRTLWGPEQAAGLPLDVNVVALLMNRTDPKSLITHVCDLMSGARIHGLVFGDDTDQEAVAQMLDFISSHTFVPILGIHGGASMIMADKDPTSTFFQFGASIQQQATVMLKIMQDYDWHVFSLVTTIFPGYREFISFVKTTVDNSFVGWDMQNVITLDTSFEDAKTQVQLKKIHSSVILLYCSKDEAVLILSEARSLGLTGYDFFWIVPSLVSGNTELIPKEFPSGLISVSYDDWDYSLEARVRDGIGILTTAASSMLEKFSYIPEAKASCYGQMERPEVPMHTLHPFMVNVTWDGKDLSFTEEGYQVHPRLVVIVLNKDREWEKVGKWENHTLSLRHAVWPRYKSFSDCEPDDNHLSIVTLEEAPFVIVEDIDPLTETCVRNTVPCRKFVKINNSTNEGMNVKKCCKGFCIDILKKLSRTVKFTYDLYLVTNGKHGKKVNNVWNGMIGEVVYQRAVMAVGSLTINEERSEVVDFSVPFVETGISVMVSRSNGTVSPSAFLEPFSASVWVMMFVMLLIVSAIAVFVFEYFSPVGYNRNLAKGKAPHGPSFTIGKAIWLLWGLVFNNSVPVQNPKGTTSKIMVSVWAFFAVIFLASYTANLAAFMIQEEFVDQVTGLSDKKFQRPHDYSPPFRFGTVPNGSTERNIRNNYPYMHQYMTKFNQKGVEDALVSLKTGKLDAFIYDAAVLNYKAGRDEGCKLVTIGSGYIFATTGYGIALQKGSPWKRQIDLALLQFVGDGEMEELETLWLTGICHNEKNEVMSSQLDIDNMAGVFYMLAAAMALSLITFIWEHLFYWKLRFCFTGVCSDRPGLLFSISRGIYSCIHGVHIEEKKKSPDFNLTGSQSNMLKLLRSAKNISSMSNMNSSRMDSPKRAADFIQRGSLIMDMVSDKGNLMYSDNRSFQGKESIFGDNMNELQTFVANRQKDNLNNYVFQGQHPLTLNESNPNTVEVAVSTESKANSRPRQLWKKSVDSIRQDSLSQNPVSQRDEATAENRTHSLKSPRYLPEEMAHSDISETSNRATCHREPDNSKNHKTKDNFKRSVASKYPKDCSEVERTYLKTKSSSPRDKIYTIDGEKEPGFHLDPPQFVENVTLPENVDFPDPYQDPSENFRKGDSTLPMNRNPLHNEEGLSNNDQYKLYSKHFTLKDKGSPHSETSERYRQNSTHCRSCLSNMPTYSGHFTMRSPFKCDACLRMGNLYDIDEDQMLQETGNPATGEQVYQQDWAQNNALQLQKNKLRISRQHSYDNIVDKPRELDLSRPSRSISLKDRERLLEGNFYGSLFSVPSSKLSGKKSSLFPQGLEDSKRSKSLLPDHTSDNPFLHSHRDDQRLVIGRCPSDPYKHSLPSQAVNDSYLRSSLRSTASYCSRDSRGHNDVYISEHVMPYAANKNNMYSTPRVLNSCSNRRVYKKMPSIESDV
# Procedure text: FLIPR functional assay, HEK 293 cells (agonist/PAM/antagonist)
# Measurement context: top concentration 100 μM, read-out: IC50, functional antagonist receptor assay
Observable: IC50 (µM)
Answers are plain numbers, in µM.

Memo: C[C@@](N)(CCC(=O)O)C(=O)O [(R)-2MeGlu, (R)-2-methylglutamic acid] , reported IC50: 69

====

# Procedure text: Pharmacokinetics of 2MeGlu and 2MeGln in mice
# Assay type: in vivo
# Measurement context: C57BL/6; 100 mg/kg IP, mouse brain
Observable: half-life

Memo: C[C@@](N)(CCC(=O)O)C(=O)O [(R)-2MeGlu, (R)-2-methylglutamic acid] , reported half-life: ~70 min

====

# Target system: GABAA α6β3γ2 (Homo sapiens, UniProt P28472+Q16445)
# Sequence (Q16445 20-453, one chain of several): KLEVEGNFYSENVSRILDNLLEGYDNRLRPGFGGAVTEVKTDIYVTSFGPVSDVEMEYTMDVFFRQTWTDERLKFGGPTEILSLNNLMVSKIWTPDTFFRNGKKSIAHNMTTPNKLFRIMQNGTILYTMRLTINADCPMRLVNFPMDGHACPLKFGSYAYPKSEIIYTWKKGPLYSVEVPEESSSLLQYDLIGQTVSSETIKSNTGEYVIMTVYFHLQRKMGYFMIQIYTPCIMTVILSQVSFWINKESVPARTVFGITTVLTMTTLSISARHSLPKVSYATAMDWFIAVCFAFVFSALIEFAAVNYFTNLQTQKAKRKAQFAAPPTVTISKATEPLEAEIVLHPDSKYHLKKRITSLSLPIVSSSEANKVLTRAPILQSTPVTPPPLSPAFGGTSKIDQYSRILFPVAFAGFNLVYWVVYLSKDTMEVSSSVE
# Procedure text: FLIPR functional assay, HEK 293 cells (agonist/PAM/antagonist)
# Measurement context: top concentration 1 mM, read-out: EC50, functional agonist receptor assay
Observable: pEC50
Numbers only, as −log10 of the molar value.

Memo: C[C@](N)(CCC(=O)O)C(=O)O [(S)-2MeGlu, (S)-2-methylglutamic acid] , reported pEC50: 3.00

====

# Target system: GABAA α2β3γ2 (Homo sapiens, UniProt P18507+P28472+P47869)
# Construct: host or cells: HEK 293 (stably expressing)
# Sequence (P47869 29-451, one chain of several): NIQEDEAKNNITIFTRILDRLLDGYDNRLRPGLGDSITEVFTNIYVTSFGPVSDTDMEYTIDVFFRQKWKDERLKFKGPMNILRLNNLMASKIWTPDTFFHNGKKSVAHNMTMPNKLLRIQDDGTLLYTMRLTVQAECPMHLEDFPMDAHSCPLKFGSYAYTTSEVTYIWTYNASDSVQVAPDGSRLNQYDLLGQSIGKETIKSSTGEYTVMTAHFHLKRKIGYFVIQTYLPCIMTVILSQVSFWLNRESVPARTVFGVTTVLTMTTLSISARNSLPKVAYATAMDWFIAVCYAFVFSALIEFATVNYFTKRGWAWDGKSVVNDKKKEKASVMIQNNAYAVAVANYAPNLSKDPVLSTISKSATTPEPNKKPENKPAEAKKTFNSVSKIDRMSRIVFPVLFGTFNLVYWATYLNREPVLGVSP
# Procedure text: FLIPR functional assay, HEK 293 cells (agonist/PAM/antagonist)
# Format: cell-based
# Measurement context: top concentration 1 mM, read-out: EC50, functional agonist receptor assay
Field: pEC50. Provide a value for each of the compounds that follow.
Numbers only, as −log10 of the molar value.

Compound: C[C@](N)(CCC(=O)O)C(=O)O [(S)-2MeGlu, (S)-2-methylglutamic acid]
Assay value: 3.47

Now consider the entry below.
Memo: C[C@@](N)(CCC(=O)O)C(=O)O [(R)-2MeGlu, (R)-2-methylglutamic acid] , reported pEC50: 3.21
